# PROCEDURE_SUMMARY: Cytotoxicity in HepG2
# CONDITION_DETAILS: human, HepG2 cells
Counter-ions that a name gives are not always drawn.
ENDPOINT_NAME: CC50 (µM)
Report as a plain number; the unit µM is understood.

Field request: CC50 | item: `OC1(c2ccc(Cl)c(C(F)(F)F)c2)CCN(CCCC(c2ccc(F)cc2)c2ccc(F)cc2)CC1`
8.63

Similarly, CCCCc1oc2ccc(NS(C)(=O)=O)cc2c1C(=O)c1ccc(OCCCN(CCCC)CCCC)cc1 [Dronedarone HCl] ?
15.5

Next compound: `CCc1ccc(OCc2ccccc2C(=O)Nc2ccc3nc(C)cc(N)c3c2)cc1`
7.43

Now consider `CC1(C)CC[C@]2(NC(=O)C(C)(F)F)CC[C@]3(C)[C@H](C(=O)C=C4[C@@]5(C)C=C(C#N)C(=O)C(C)(C)[C@@H]5CC[C@]43C)[C@@H]2C1` and answer again.
9.33

###

# Tested on: HepG2
ENDPOINT_NAME: CC50 (µM)
Response body: numeric value in µM, unit text excluded.

Tell me the measured CC50 of `CC(C)(Cc1ccc2ccccc2c1)NC[C@@H](O)COc1cccc(Cl)c1C#N` , please.
15.3

###

# Tested on: lab-cultured E. granulosus microcysts (< 1 mm)
# PROCEDURE_SUMMARY: In vitro microcyst viability assay
# Assay type: cell-based, Echinococcus granulosus
# CONDITION_DETAILS: 10 μM, 4 days
ENDPOINT_NAME: effect on microcyst viability

O=C(Nc1ccc([N+](=O)[O-])cc1Cl)c1cc(Cl)ccc1O [Niclosamide]
complete lethality
CC1(C)CC[C@]2(NC(=O)C(C)(F)F)CC[C@]3(C)[C@H](C(=O)C=C4[C@@]5(C)C=C(C#N)C(=O)C(C)(C)[C@@H]5CC[C@]43C)[C@@H]2C1 [Omaveloxolone]
complete lethality

###

# PROCEDURE_SUMMARY: in vitro
# CONDITION_DETAILS: human
ENDPOINT_NAME: CC50 (µM)
Respond numerically; units are µM and should not be typed.

# query: CC50 of entry CC(C)(C)c1ccc(C(O)CCCN2CCC(C(O)(c3ccccc3)c3ccccc3)CC2)cc1 (stereo not drawn)
7.31

What do you have for O=C(Nc1ccc([N+](=O)[O-])cc1Cl)c1cc(Cl)ccc1O [Niclosamide] ?
6.14

// repeat for `COC(=O)[C@]12CCC(C)(C)C[C@H]1[C@H]1C(=O)C=C3[C@@]4(C)C=C(C#N)C(=O)C(C)(C)[C@@H]4CC[C@@]3(C)[C@]1(C)CC2` and report
8.13
